composite z-score: recorded values
- Test system: wheat germ agglutinin (Triticum aestivum), Alexa647-labelled
- assay.comment: wheat germ agglutinin binders on compound microarrays, profiling panel, artefact control for SMM control-protein annotation, biochemical, small-molecule microarray, 635/667 nm fluorescence (AID 1140);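 also: score merges 667 nm feature emission with signal to noise over triplicate slides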
- recorded.conditions: WGA-A647 binding, 635 nm fluorescence, higher = more signal

compound: C=CCC(OC(C)=O)[C@@H]1[C@@H](N(Cc2cc3ccccc3o2)C(=O)Cc2ccc(OC)cc2)c2cc(OCCCO)ccc2N1C(=O)Cc1ccc2ccccc2c1 (stereo not given in full)
composite z-score: 0.116
//
compound: COc1ccccc1CN1C(=O)c2ccccc2[C@@H](C(=O)NCCCN(C)C)[C@@H]1c1ccc(CO)cc1
composite z-score: 0.131
//
compound: CCCCN1CC=CC23O[C@@H]4/C=C\CCC(C)OC(=O)C4[C@H]2C(=O)N(C(C)CO)[C@@H]3C1=O (stereo not given in full)
composite z-score: -0.128
//
compound: C#CCN=C(N)N
composite z-score: 0.299
//
compound: CC(C)[C@@H](C(=O)O)n1cc(-c2ccccc2)nn1
composite z-score: 1.15
//
compound: COCCOC(=O)N1C(=O)[C@@]2(c3cc(C#CCCO)ccc31)[C@H](c1ccc(O)cc1)N1[C@H](c3ccccc3)[C@H](c3ccccc3)OC(=O)[C@H]1[C@@H]2C(=O)N1CCc2cc(OC)c(OC)cc2C1
composite z-score: 1.03
//
compound: CC(=O)NCCCC[C@@H]1NC(=O)[C@H]2C[C@@H](C(=O)NCCCCCC[N+](C)(C)C)[C@@H](c3ccc(O)cc3)N2C1=O
composite z-score: 0.16
//
compound: O=C(NCCO)C1=C[C@H](Oc2ccccc2I)[C@@H](O)[C@H](NCc2ccc(F)cc2)C1
composite z-score: -1.25
//
compound: C=CCNC(=O)[C@@H]1[C@H]2C(=O)O[C@H](c3ccccc3)[C@H](c3ccccc3)N2[C@H](c2ccc(O)cc2)[C@@]12C(=O)Nc1ccc(C#CC3(O)CCCCCC3)cc12
composite z-score: -0.321
//
compound: COC(=O)[C@@]1(Cc2ccccc2CN=[N+]=[N-])COC(c2ccc(OCCCO)cc2)=N1
composite z-score: 0.0216
//
compound: CO[C@H]1O[C@H](CO)[C@@H](OC(=O)Nc2ccc(C(F)(F)F)cc2)[C@H](OC(=O)Nc2ccccc2-c2ccccc2)[C@H]1OC(=O)Nc1ccccc1-c1ccccc1
composite z-score: 0.662
//
compound: CCOC(=O)C1=CCC(c2cc3ccccc3[nH]2)N(S(=O)(=O)c2ccccc2[N+](=O)[O-])C1 (stereo not given)
composite z-score: 0.896
//
compound: CC(C)CNC(=O)[C@@]1(C)c2ccccc2C(=O)N(Cc2cc(F)cc(C(F)(F)F)c2)[C@H]1c1ccc(CO)cc1
composite z-score: 0.154
//
compound: CCCCN1CC=CC23O[C@@H]4C=CCOC(=O)[C@@H]4[C@H]2C(=O)N(CCO)[C@@H]3C1=O (stereo not given in full)
composite z-score: -1.29
//
compound: [N-]=[N+]=NCc1ccccc1C[C@@]1(C(=O)O)N=C(c2ccc(OCCCO)cc2)O[C@@H]1c1ccccc1CN=[N+]=[N-]
composite z-score: 0.51

###

- assay.comment: COS7 lysate on small-molecule microarray, probe aHis, 635 nm (AID 1123);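 also: z-score combines 667nm fluorescence intensity with signal-to-noise per printed compound spot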
- recorded.conditions: COS7 cell lysate, fluorescence, higher = more signal

compound: O=C1N(CCS(=O)(=O)c2ccccc2)c2ccccc2[C@@H]2OC(c3ccc(OCCCO)cc3)=N[C@]12CCS(=O)(=O)c1ccccc1
composite z-score: 2.8
//
compound: C[N+](C)(C)CCCCCCNC(=O)[C@@H]1C[C@@H]2C(=O)N[C@@H](Cc3ccccc3)C(=O)N2[C@@H]1c1ccc(O)cc1
composite z-score: 0.955
//
compound: CN(C)CCCC[C@@H]1NC(=O)[C@@H]2C[C@H](C(=O)NCCCCCCNC(=O)CS)[C@H](c3cccc(OCCO)c3)N2C1=O
composite z-score: 0.95
//
compound: N#Cc1ccc(C(O)C2C=CC3C(=O)NC(=O)C3N2Nc2ccccn2)cc1 (centres undefined)
composite z-score: 0.767
